pKi reference
test.target: k (Kappa) opioid receptor (Cavia porcellus)
Construct: fresh guinea pig brain homogenate; from tissue; host or cells: guinea pig whole brain without cerebellum, washed membrane homogenate
Sequence (P41144 whole entry): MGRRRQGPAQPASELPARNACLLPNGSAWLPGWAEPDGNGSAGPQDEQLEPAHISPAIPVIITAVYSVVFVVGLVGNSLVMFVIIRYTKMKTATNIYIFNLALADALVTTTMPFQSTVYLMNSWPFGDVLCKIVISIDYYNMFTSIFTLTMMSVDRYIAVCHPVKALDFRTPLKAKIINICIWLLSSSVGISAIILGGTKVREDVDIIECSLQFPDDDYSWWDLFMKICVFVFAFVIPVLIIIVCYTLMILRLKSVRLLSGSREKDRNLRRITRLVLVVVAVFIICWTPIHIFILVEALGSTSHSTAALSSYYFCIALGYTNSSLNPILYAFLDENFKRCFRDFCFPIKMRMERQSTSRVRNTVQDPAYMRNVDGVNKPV
assay: Radio receptor binding to k sites (tritiated Ethylketocyclazocine)
Set-up: species or system guinea pig
Counter-ions that a name gives are not always drawn.
// pKi is dimensionless: -log10 of concentration (M)

Field: example entries. Status: answers known.
molecule	pKi
O=C(Cc1ccc(Cl)c(Cl)c1)N1Cc2ccccc2CC1CN1CCCC1 (racemic) [Example 1, hydrochloride]	8.02
O=C(Cc1ccc(Cl)c(Cl)c1)N1Cc2ccccc2C[C@H]1CN1CCCC1 [Example 3, hydrochloride]	8.10
CN(C)CC1Cc2ccccc2CN1C(=O)Cc1ccc(Cl)c(Cl)c1 (racemic) [Example 4, hydrochloride]	7.76

Give its pKi value. Item: CN(C)C[C@@H]1Cc2ccccc2CN1C(=O)Cc1ccc(Cl)c(Cl)c1 [Example 6, hydrochloride] 7.96
